Numbers sourced from patent US20260224486A1.

# EXPERIMENTAL PROTOCOL: Lipid nanoparticle size and polydispersity index by dynamic light scattering (Malvern Zetasizer)
# Format: physicochemical
# MEASUREMENT CONTEXT: hEPO mRNA LNP, Process A, Cationic Lipid:DMG-PEG2000:Cholesterol:DOPE 40:1.5:28.5:30 mol %, N/P 4
RESULT TYPE: Polydispersity Index (PDI)

Fill in the blank: the reported Polydispersity Index (PDI) of CCCCCCCCCCCCCCC(O)CN(CCCC(=O)O[C@@H]1CO[C@H]2[C@@H]1OC[C@H]2OC(=O)CCCCN(CC(O)CCCCCCCCCC)CC(O)CCCCCCCCCC)CC(O)CCCCCCCCCCCCCC (stereo partly drawn) [Compound 8] is ____. 0.13

And for CCCCCCCCCCCCC(O)CN(CCCC(=O)N[C@H]1CO[C@H]2[C@@H]1OC[C@@H]2NC(=O)CCCN(CC(O)CCCCCCCCCCCC)CC(O)CCCCCCCCCCCC)CC(O)CCCCCCCCCCCC (stereo partly drawn) [Compound 55] ? 0.15

And for CCCCCCCCCCC(O)CN(CCCOC(=O)O[C@@H]1CO[C@H]2[C@@H]1OC[C@H]2OC(=O)OCCCN(CC(O)CCCCCCCCCC)CC(O)CCCCCCCCCC)CC(O)CCCCCCCCCC (stereo partly drawn) [Compound 36] ? 0.2

And for CCCCCCCCCCCOC(=O)CCCC(O)CN(CCCC(=O)O[C@H]1CO[C@H]2[C@@H]1OC[C@H]2OC(=O)CCCN(CC(O)CCCCCC(=O)OC(CCCCCCCC)CCCCCCCC)CC(O)CCCC(=O)OCCCCCCCCCCC)CC(O)CCCCCC(=O)OC(CCCCCCCC)CCCCCCCC (stereo partly drawn) [Compound 33] ? 0.11

And for CCCCCCCCCCCCCCCCC(O)CN(CCCCC(=O)O[C@@H]1CO[C@H]2[C@@H]1OC[C@H]2OC(=O)CCCCN(CC(O)CCCCCCCCCCCCCCCC)CC(O)CCCCCCCCCCCCCCCC)CC(O)CCCCCCCCCCCCCCCC (stereo partly drawn) [Compound 31] ? 0.12

And for CCCCCC/C=C\COC(=O)CCCCCC(O)CN(CCCC(=O)O[C@@H]1CO[C@H]2[C@@H]1OC[C@H]2OC(=O)CCCN(CC(O)CCCCCC(=O)OC/C=C\CCCCCC)CC(O)CCCCCC(=O)OC/C=C\CCCCCC)CC(O)CCCCCC(=O)OC/C=C\CCCCCC (stereo partly drawn) [Compound 16] ? 0.11

And for CCCCCCCCCCC(O)CN(CCCC(=O)N[C@H]1CO[C@H]2[C@@H]1OC[C@@H]2NC(=O)CCCN(CC(O)CCCCCCCCCC)CC(O)CCCCCCCCCC)CC(O)CCCCCCCCCC (stereo partly drawn) [Compound 52] ? 0.14

And for CCCCCCCCCCCOC(=O)CCCC(O)CN(CCCC(=O)O[C@@H]1CO[C@H]2[C@@H]1OC[C@H]2OC(=O)CCCN(CC(O)CCCCCCCCCC)CC(O)CCCCCCCCCC)CC(O)CCCCCC(=O)OC(CCCCCCCC)CCCCCCCC (stereo partly drawn) [Compound 9] ? 0.1

And for CCCCCCCCC(O)CN(CCCC(=O)N[C@H]1CO[C@H]2[C@@H]1OC[C@@H]2NC(=O)CCCN(CC(O)CCCCCCCC)CC(O)CCCCCCCC)CC(O)CCCCCCCC (stereo partly drawn) [Compound 51] ? 0.12

And for CCCCCCCCCCC(O)CN(CCCC(=O)O[C@H]1CO[C@H]2[C@@H]1OC[C@H]2OC(=O)CCCN(CC(O)CCCCCCCC)CC(O)CCCCCCCC)CC(O)CCCCCCCCCC (stereo partly drawn) [Compound 22] ? 0.1

And for CCCCCCCCCCC(O)CN(CCCCC(=O)O[C@@H]1CO[C@H]2[C@@H]1OC[C@@H]2OC(=O)CCCN(CC(O)CCCCCCCCCC)CC(O)CCCCCCCCCC)CC(O)CCCCCCCCCC (stereo partly drawn) [Compound 25] ? 0.13

And for CCCCCCCCC(O)CN(CCCCC(=O)O[C@H]1CO[C@H]2[C@@H]1OC[C@H]2OC(=O)CCCCN(CC(O)CCCCCCCC)CC(O)CCCCCCCC)CC(O)CCCCCCCC (stereo partly drawn) [Compound 21] ? 0.139
